Data provenance is patent US8513271B2.

# TARGET_SYSTEM: delta opioid receptor (Mus musculus)
# Construct: NG108-15 cell membranes were purchased from Applied Cell Sciences (Rockville, Md.); host or cells: NG108-15 cell membranes
# Sequence (P32300 whole entry): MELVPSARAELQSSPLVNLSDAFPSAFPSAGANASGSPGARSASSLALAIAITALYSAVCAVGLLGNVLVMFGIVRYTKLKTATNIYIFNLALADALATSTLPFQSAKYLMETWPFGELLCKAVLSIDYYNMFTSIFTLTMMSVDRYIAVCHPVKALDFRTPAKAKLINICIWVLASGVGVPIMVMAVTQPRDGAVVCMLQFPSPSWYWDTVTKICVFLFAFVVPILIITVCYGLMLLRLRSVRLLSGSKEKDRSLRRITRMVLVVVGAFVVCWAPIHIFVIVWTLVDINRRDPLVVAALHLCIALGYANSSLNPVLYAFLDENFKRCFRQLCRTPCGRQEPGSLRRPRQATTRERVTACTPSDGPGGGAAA
# PROTOCOL: [35S]GTPγS binding assay in NG108-15 cell membranes (delta opioid functional assay), 200 nM screen
# Assay type: biochemical
# CONDITION_DETAILS: NG108-15 cell membranes; averages if tested more than once; read-out: GTPγS δ-opioid receptor EC50
Listed next: entries and their corresponding pEC50.
# pEC50 = -log10(concentration in molar units)

A selection of reference data follows.
[[record]]
compound = "Cc1cncc(-c2ncc(NC[C@@H]3CCCN3)c(Oc3ccc(OCF)cc3)n2)c1 [Cpd 260]"
assay_endpoint = "pEC50"
reported_measurement = 6.52

[[record]]
compound = "COc1ccc(Oc2nc(-c3cncnc3)ncc2NC[C@H]2CCCC[C@@H]2N)cc1 [Cpd 300]"
assay_endpoint = "pEC50"
reported_measurement = 5.98

[[record]]
compound = "CSc1ccc(Oc2nc(-c3cccnc3)ncc2NC[C@@H]2CCCN2)cc1 [Cpd 152]"
assay_endpoint = "pEC50"
reported_measurement = 7.15

[[record]]
compound = "Cc1nc2ccc(Oc3nc(-c4cncc(C#N)c4)ncc3NC[C@@H]3CCCN3)cc2s1 [Cpd 88]"
assay_endpoint = "pEC50"
reported_measurement = 6.32

[[record]]
compound = "O=CNc1ccc(Oc2nc(-c3cncc(F)c3)ncc2NC[C@@H]2CCCN2)cc1 [Cpd 223]"
assay_endpoint = "pEC50"
reported_measurement = 6.82

[[record]]
compound = "Cc1ccc(Oc2nc(-c3cncc(F)c3)ncc2NC[C@@H]2CCCN2)cc1 [Cpd 178]"
assay_endpoint = "pEC50"
reported_measurement = 6.52

[[record]]
compound = "CCc1ccc(Oc2nc(-c3cncc(C#N)c3)ncc2NC[C@@H]2C[C@@H](F)CN2)cc1 [Cpd 195]"
assay_endpoint = "pEC50"
reported_measurement = 6.71

[[record]]
compound = "COc1ccc(Oc2nc(-c3cncc(C#N)c3)ncc2NCC2CNCCO2)cc1 (stereo not drawn) [Cpd 275]"
assay_endpoint = "pEC50"
reported_measurement = 6.04


Form entry - test system: delta opioid receptor (Mus musculus); read-out: pEC50; compound: FCc1ccc(Oc2nc(-c3cccnc3)ncc2NC[C@@H]2CCCN2)cc1 [Cpd 217]
6.21

Observed pEC50 on delta opioid receptor (Mus musculus) for COc1ccc(Oc2nc(-c3cccnc3)ncc2NC[C@@H]2CCCN2)cc1C [Cpd 211] , please.
6.97

Recall the recorded pEC50 for Cc1ccccc1Oc1nc(-c2cncc(Cl)c2)ncc1NC[C@@H]1CCCN1 [Cpd 227] with delta opioid receptor (Mus musculus) and state it.
6.61

Request: pEC50, test system delta opioid receptor (Mus musculus), entry N#Cc1cncc(-c2ncc(NC[C@@H]3CCCN3)c(Oc3ccc(F)cc3)n2)c1 [Cpd 146]
6.41

* * *

Measured EC50, listed per entry.
# TARGET_SYSTEM: delta opioid receptor (Mus musculus)
# Construct: NG108-15 cell membranes were purchased from Applied Cell Sciences (Rockville, Md.); host or cells: NG108-15 cell membranes
# PROTOCOL: [35S]GTPγS binding assay in NG108-15 cell membranes (delta opioid functional assay), 200 nM screen
# Type: biochemical
# CONDITION_DETAILS: NG108-15 cell membranes; averages if tested more than once; read-out: GTPγS δ-opioid receptor EC50

Record excerpt, results attached:
[[record]]
smiles_repr = "COc1ccc(Oc2nc(-c3cncc(C#N)c3)ncc2NC[C@@H](N)CC(C)C)cc1"
target_system = "delta opioid receptor (Mus musculus)"
assay_endpoint = "EC50"
reported_measurement = "> 10 µM"

[[record]]
smiles_repr = "N#Cc1ccc(Oc2nc(-c3cccnc3)ncc2NC[C@@H]2CCCN2)cc1F"
target_system = "delta opioid receptor (Mus musculus)"
assay_endpoint = "EC50"
reported_measurement = "> 10 µM"


Reported EC50, compound COc1ccc(Oc2nc(-c3cccnc3)ncc2NC[C@@H]2C[C@H](O)CN2)cc1 : ____
> 1 µM
